Provenance of the data: patent US20240285571A1

Tested on: Klebsiella pneumoniae
test.method.notes: Broth microdilution MIC (Example 6)
Assay type: cell-based
condition.label: Klebsiella pneumoniae, K. pneumoniae CDC 112; KPC; read-out: MIC
MIC values by entry
value.type: MIC (µg/mL)

{"compound": "CC(C)(O/N=C(\\C(=O)N[C@@H]1C(=O)N2C(C(=O)[O-])=C(C[n+]3ccccc3)CS[C@H]12)c1csc(N)n1)C(=O)O [Ceftazidime]", "unit.descriptor": "µg/mL", "limit.operator": ">", "meas.value": 64}
{"compound": "C[C@@H](O)[C@H]1C(=O)N2C(C(=O)O)=C(S[C@@H]3CN[C@H](C(=O)N(C)C)C3)[C@H](C)[C@H]12 [Meropenem]", "unit.descriptor": "µg/mL", "limit.operator": ">", "meas.value": 8}
{"compound": "NCC[C@H](O)C(=O)N[C@@H]1C[C@H](N)[C@@H](O[C@H]2O[C@H](CN)[C@@H](O)[C@H](O)[C@H]2O)[C@H](O)[C@H]1O[C@H]1O[C@H](CO)[C@@H](O)[C@H](N)[C@H]1O [Amikacin]", "unit.descriptor": "µg/mL", "limit.operator": "=", "meas.value": 16}
{"compound": "C[C@H]1COc2c(N3CCN(C)CC3)c(F)cc3c(=O)c(C(=O)O)cn1c23 [Levofloxacin]", "unit.descriptor": "µg/mL", "limit.operator": "=", "meas.value": 4}

====

Tested on: Escherichia coli
test.method.notes: Broth microdilution MIC (Example 6)
Type: cell-based
condition.label: Escherichia coli, E. coli CDC 118; ESBL/NDM; read-out: MIC
MIC values by entry

{"compound": "NCC[C@H](O)C(=O)N[C@@H]1C[C@H](N)[C@@H](O[C@H]2O[C@H](CN)[C@@H](O)[C@H](O)[C@H]2O)[C@H](O)[C@H]1O[C@H]1O[C@H](CO)[C@@H](O)[C@H](N)[C@H]1O [Amikacin]", "system.under.test": "Escherichia coli", "MIC": "> 64 µg/mL"}
{"compound": "C[C@@H](O)[C@H]1C(=O)N2C(C(=O)O)=C(S[C@@H]3CN[C@H](C(=O)N(C)C)C3)[C@H](C)[C@H]12 [Meropenem]", "system.under.test": "Escherichia coli", "MIC": "0.06 µg/mL"}
{"compound": "C[C@H]1COc2c(N3CCN(C)CC3)c(F)cc3c(=O)c(C(=O)O)cn1c23 [Levofloxacin]", "system.under.test": "Escherichia coli", "MIC": "8 µg/mL"}
{"compound": "CC(C)(O/N=C(\\C(=O)N[C@@H]1C(=O)N2C(C(=O)[O-])=C(C[n+]3ccccc3)CS[C@H]12)c1csc(N)n1)C(=O)O [Ceftazidime]", "system.under.test": "Escherichia coli", "MIC": "> 64 µg/mL"}

====

MIC values by entry
System: Acinetobacter baumannii
test.method.notes: Broth microdilution MIC (Example 6)
Format: cell-based
condition.label: Acinetobacter baumannii, A. baumannii isolate CDC 275, β-lactamase type ESBL/OXA; read-out: MIC
value.type: MIC

{"mol": "NCC[C@H](O)C(=O)N[C@@H]1C[C@H](N)[C@@H](O[C@H]2O[C@H](CN)[C@@H](O)[C@H](O)[C@H]2O)[C@H](O)[C@H]1O[C@H]1O[C@H](CO)[C@@H](O)[C@H](N)[C@H]1O", "meas.value": "> 64 µg/mL"}
{"mol": "C[C@H]1COc2c(N3CCN(C)CC3)c(F)cc3c(=O)c(C(=O)O)cn1c23", "meas.value": "4 µg/mL"}
{"mol": "CC(C)(O/N=C(\\C(=O)N[C@@H]1C(=O)N2C(C(=O)[O-])=C(C[n+]3ccccc3)CS[C@H]12)c1csc(N)n1)C(=O)O", "meas.value": "> 64 µg/mL"}
{"mol": "C[C@@H](O)[C@H]1C(=O)N2C(C(=O)O)=C(S[C@@H]3CN[C@H](C(=O)N(C)C)C3)[C@H](C)[C@H]12", "meas.value": "> 8 µg/mL"}
